# System: E. coli ATCC25922 ΔwaaC
# Assay type: cell-based, Escherichia coli
# test-conditions: Table 6, triplicates
Where no end group is shown, it is not given here.
The sequences listed here are annotated with their Antimicrobial activity: MIC.
endpoint-name: Antimicrobial activity: MIC

> print(dat)
                             sequence.string  recorded.value
 1  GLRKRLRKFRNKIKEKLPKIGQKIQGLLPKLAPRTDY [K18P]         2 µg/mL
 2  GLRKRLRKFRNKIKEKPKKIGQKIQGLLPKLAPRTDY [L17P]       ≥64 µg/mL
 3  GLRKRLRKFRNKIKEKLKKIGQKIQGLLPKLAPRTDY [Cap18]    2 to 4 µg/mL
 4  GLRKRLRKFRNKIKEKLKKNGQKIQGLLPKLAPRTDY [I20N]        16 µg/mL
 5  GLRKRLRKFRNKIKEKLKKIGQKDQGLLPKLAPRTDY [I24D]        16 µg/mL
 6  GLRKRLRKFRNKIKECLKKIGQKIQGLLPKLAPRTDY [K16C]         4 µg/mL
 7  GLRKRLRKFRNKFKEKLKKIGQKIQGLLPKLAPRTDY [I13F]         2 µg/mL
 8  GLRKRLRKFRNKHKEKLKKIGQKIQGLLPKLAPRTDY [I13H]         2 µg/mL
 9  GLRKRLRKFRNKIKEKLKKIGQKIQGPLPKLAPRTDY [L27P]         8 µg/mL
10  GLRKRPRKFRNKIKEKLKKIGQKIQGLLPKLAPRTDY [L6P]         4 µg/mL
